Measured melting point of individual entries
outcome.measure: melting point

COc1cc(/C=C/C(=O)COC(=O)/C=C/c2ccc(O)cc2)ccc1O [Example 10b, Feruloylmethyl 4-hydroxycinnamate]	181.4 to 183.4 °C
COc1cc(/C=C/C(=O)COC(=O)/C=C/c2ccc(O)c(OC)c2)ccc1O [Example 10a, Feruloylmethyl ferulate]	138 to 140 °C
COc1cc(/C=C/C(=O)OCC(=O)/C=C/c2ccc(O)cc2)ccc1O [Example 10c, 4-Hydroxycinnamoylmethyl ferulate]	175.7 to 177.7 °C
O=C(/C=C/c1ccc(O)cc1)COC(=O)/C=C/c1ccc(O)cc1 [Example 10d]	289 to 291 °C
